Listing: z-score of selected compounds
test: RPMI8226 myeloma cell viability, profiling panel, resazurin fluorescence, basal, 24 h, PK04 Diversity Set (AID 1180); settings: higher = more signal;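 note: RPMI8826 multiple myeloma cell line at 5000 cells per well; test concentration not given here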

Compound: CC(=O)n1cc(C(O)C2C=CC3C(=O)N(c4ccccc4)C(=O)C3N2Nc2ccccc2)c2ccccc21 (centres undefined)
z-score: -1.76

Compound: COC(=O)[C@H](Cc1ccccc1)N1CC(/C=C/C2CC2)=C[C@@H]1[C@@H](O)Cc1ccccc1
z-score: -0.277

Compound: C=CCC(OC(C)=O)[C@@H]1[C@@H](N(Cc2cc3ccccc3o2)C(=O)Cc2ccc(F)cc2)c2cc(OCCCO)ccc2N1C(=O)c1ccc2ccccc2n1 (some centres undefined)
z-score: 0.708

Compound: CC(C)N1CC=CC23O[C@@H]4C=CCCOC(=O)C4[C@H]2C(=O)N(CCO)[C@@H]3C1=O (some centres undefined)
z-score: 0.475

###

assay: HepG2 cell viability effects, profiling panel, calcein-AM fluorescence, 48 h, basal (AID 1164); conditions: higher = more signal; note: test concentration not given here

Compound: CC(C)(C)OC(=O)CC[C@]1(C(=O)NCCN2CCOCC2)N=C(c2ccc(OCCCO)cc2)O[C@H]1c1ccccc1N=[N+]=[N-]
z-score: 0.309
--
Compound: COC(=O)Cn1c(C(=O)N2CCCC2)cc2c1C[C@H]1CN(C(=O)c3ccccc3)[C@@](Cc3ccc(F)cc3)(C(=O)OC)[C@@H]21
z-score: 0.476
--
Compound: C=C(COC)/C(=C/C[C@@H](OC(=O)c1ccncc1)c1ccc(OCCO)cc1)c1cnc2ccccc2c1
z-score: -0.0465
--
Compound: O=C(NC1CC1)[C@@H]1c2ccccc2C(=O)N(Cc2ccccc2)[C@H]1c1ccc(CO)cc1
z-score: 1.46
--
Compound: CC(=O)n1cc(C(O)C2C=CC3C(=O)N(c4ccccc4)C(=O)C3N2Nc2ccccc2)c2ccccc21 (configuration not stated)
z-score: 0.374
--
Compound: COc1ccc([Si](C)(C)[C@H]2[C@H](CCn3cc([C@H](O)c4ccccc4)nn3)O[C@@]3(C(=O)N(Cc4ccc(N5CCC5=O)cc4)c4ccccc43)[C@@H]2C)cc1
z-score: -0.541
--
Compound: CC(C)C(O)C1C=CC2C(=O)N(C)C(=O)C2N1Nc1ccccc1 (configuration not stated)
z-score: 0.0515

###

Entries and their measured z-score follow.
assay: HepG2 liver cancer cell viability effects, profiling panel, resazurin fluorescence, 24 h, PK04 Diversity Set (AID 1172); settings: higher = more signal; note: test concentration not given here

Line notation: Cc1ccc(S[C@]2(C(=O)NCCN3CCOCC3)CC(=O)N(Cc3ccccc3C(F)(F)F)[C@@H]2c2ccc(CO)cc2I)cc1
z-score: 0.628
//
Line notation: C=CC[C@@]1(C(=O)O)N=C(c2ccc(OCCCO)cc2)O[C@@H]1c1ccccc1
z-score: 1.53
//
Line notation: C=C(/C(=C/C[C@@H](OC(=O)c1ccncc1)c1ccc(OCCO)cc1)c1cc(C(=O)OC)ccc1OC)C(C)C
z-score: 1.54
//
Line notation: Cc1ccc(S[C@]2(C(=O)NC(C)C)CC(=O)N(C3Cc4ccccc4C3)[C@@H]2c2ccc(CO)cc2I)cc1
z-score: -0.703

###

The following compounds are listed with their measured z-score values.
assay: basal RPMI8226 viability, no added stimulus, profiling panel, cell-based, calcein-AM fluorescence, 48 h, PK04 Diversity Set (AID 1166); conditions: RPMI8226 myeloma viability, higher = more signal;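 note: cells grown under basal conditions without added stimulus; test concentration not given here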
Metric: z-score

Line notation: CC(C)NC(=O)[C@@]1(C)c2ccccc2C(=O)N(C(C)C)[C@H]1c1ccc(CO)cc1
Metric: z-score
Data value: 0.0593

Line notation: COCCCNC(=O)[C@]1(Cc2ccccc2N=[N+]=[N-])N=C(c2ccc(OCCCO)cc2)O[C@@H]1c1ccccc1N=[N+]=[N-]
Metric: z-score
Data value: -3.99

Line notation: CC(C)(C)OC(=O)CC[C@]1(C(=O)N2CCOCC2)N=C(c2ccc(OCCCO)cc2)O[C@H]1c1ccccc1
Metric: z-score
Data value: 0.0928

Line notation: COC(=O)C[C@H]1O[C@]2(C(=O)N(C)c3ccccc32)[C@@H](C)[C@@H]1[Si](C)(C)c1ccc(C)cc1
Metric: z-score
Data value: -4.12

###

assay: FRG1 promoter luciferase signal modulators, primary screen, FRG1 inhibition for FSHD, cell-based, C2C12 myotubes, firefly/Renilla luciferase, luminescence (AID 1084); conditions: higher = more signal, called active from +8 up or from −8 down
Activity calls are given as the source filed them.
Measured z-score of individual entries

Compound: C=CCC(OC(C)=O)[C@@H]1[C@@H](N(Cc2cc3ccccc3o2)C(=O)c2ccc(C)cc2)c2cc(OCCCO)ccc2N1C(=O)Cc1ccc2ccccc2c1 (stereo partly drawn)
z-score: -0.286 (inactive)

Compound: C=CCOC(=O)[C@@H]1[C@H]2C(=O)O[C@H](c3ccccc3)[C@H](c3ccccc3)N2[C@H](c2ccc(OCCOC(=O)[C@H]3C[C@H]4C(=O)N[C@@H](CCCC[N+](C)(C)C)C(=O)N4[C@H]3c3ccc(O)cc3)cc2)[C@@]12C(=O)Nc1ccc(I)cc12
z-score: 0.369 (inactive)

Compound: COc1ccccc1CN1C(=O)c2ccccc2[C@](Cc2ccccc2I)(C(=O)NC(C)C)[C@@H]1c1ccc(CO)cc1
z-score: -2.79 (inactive)

Compound: CCOC(=O)C[C@H]1[C@H](OC(=O)c2ccc(-c3ccccc3)cc2)[C@@H](NC(=O)C2CCCCC2)c2cc(OCCCO)ccc2N1C(=O)c1ccccc1
z-score: -0.298 (inactive)

Compound: C=C[C@@H](COC(C)=O)NS(=O)(=O)c1ccc(Br)cc1
z-score: 1.39 (inactive)

Compound: COCCOC(=O)N1C(=O)[C@@]2(c3cc(C#Cc4ccc(OC)cc4)ccc31)[C@H](C(=O)NC[C@H](O)c1ccccc1)[C@H]1C(=O)O[C@H](c3ccccc3)[C@H](c3ccccc3)N1[C@@H]2c1ccc(O)cc1
z-score: 0.427 (inactive)

Compound: C=CCN1Cc2ccccc2C[C@@]2(N=C(c3ccc(OCCCO)cc3)O[C@H]2c2ccccc2)C1=O
z-score: -1.32 (inactive)

Compound: C=CC[C@]12N=C(c3ccc(OCCCO)cc3)O[C@H]1c1ccccc1N(C)C2=O
z-score: -1.14 (inactive)

Compound: COC(=O)[C@@]1(Cc2ccccc2)[C@H]2c3cc(C(=O)N4CCCC4)n(C[C@H](O)CO)c3C[C@H]2CN1C(=O)c1ccccc1
z-score: 0.593 (inactive)

Compound: CCC[C@@H]1C[C@@]1(CCC)[C@@H](NP(=O)(c1ccccc1)c1ccccc1)c1ccc(Cl)cc1
z-score: 1.8 (inactive)

Compound: COCCOC(=O)N1C(=O)[C@@]2(c3cc(C#CC4(O)CCCCCC4)ccc31)[C@H](C(N)=O)[C@H]1C(=O)O[C@H](c3ccccc3)[C@H](c3ccccc3)N1[C@@H]2c1ccccc1OCCO
z-score: 0.129 (inactive)

Compound: CO[C@H]1O[C@H](CO)[C@@H](OC(=O)Nc2ccccc2-c2ccccc2)[C@H](OC(=O)Nc2ccc3c(c2)OCO3)[C@@H]1OC(=O)Nc1ccc2c(c1)OCO2
z-score: 5.64 (inactive)

Compound: CC=CC(O)C1C=CC2C(=O)N(C)C(=O)C2N1Nc1ccc([N+](=O)[O-])cc1[N+](=O)[O-] (stereo not drawn)
z-score: 0.639 (inactive)

###

z-score reference
assay: adipocyte viability effects, profiling panel, cell-based, 3T3-L1 adipocytes, calcein-AM fluorescence, 48 h, basal (AID 1163); settings: 3T3-L1 adipocytes viability, higher = more signal; note: test concentration not given here

Compound: COc1cc(CO)cc(I)c1O[C@H]1C=C(C(=O)NCCO)C[C@@H](NCc2ccccc2F)[C@@H]1O
z-score: -0.512

Compound: C[C@]1(C(=O)NC2CC2)c2ccccc2C(=O)N(Cc2ccc(OC(F)(F)F)cc2)[C@H]1c1ccc(CO)cc1
z-score: -0.138

Compound: CC(C)(C)OC(=O)CC[C@]1(C(=O)NCCN2CCOCC2)N=C(c2ccc(OCCCO)cc2)O[C@H]1c1ccccc1
z-score: -1.82

Compound: COc1cc(CO)cc(I)c1O[C@H]1C=C(C(=O)NCCO)C[C@@H](N(CC2CCCCC2)C(=O)c2ccc(C(F)(F)F)cc2)[C@@H]1O
z-score: -0.535

Compound: COc1ccc([Si](C)(C)[C@H]2[C@H](CCn3cc([C@H](O)c4ccccc4)nn3)O[C@@]3(C(=O)N(Cc4cccc(N5C(=O)c6cccc7cccc5c67)c4)c4ccccc43)[C@@H]2C)cc1
z-score: 0.0344

Compound: NC(=O)N1C(=O)C2C(C1=O)C1C=C(CCCO)C2C(c2cccs2)N1Cc1cc2c(cc1Br)OCO2 (configuration not stated)
z-score: 1.46

Compound: O=C1O[C@@H](c2ccccc2)[C@@H](c2ccccc2)N2[C@@H](c3ccccc3OCCO)[C@]3(C(=O)Nc4ccc(C#CCCO)cc43)[C@@H](C(=O)Nc3nc4ccccc4s3)[C@H]12
z-score: 0.0714

FYI, the data here is from PubChem BioAssay.
